Entries and their inhibition at 5 µM
biological target: PIKfyve (Homo sapiens); construct: Nanosyn (contract laboratory that ran the panel); experiment: Kinase panel enzymatic inhibition assay (Nanosyn); format: biochemical; conditions: compound 5 μM; ATP at Km; 30-minute pre-incubation
Sequence (Q9Y2I7 whole entry): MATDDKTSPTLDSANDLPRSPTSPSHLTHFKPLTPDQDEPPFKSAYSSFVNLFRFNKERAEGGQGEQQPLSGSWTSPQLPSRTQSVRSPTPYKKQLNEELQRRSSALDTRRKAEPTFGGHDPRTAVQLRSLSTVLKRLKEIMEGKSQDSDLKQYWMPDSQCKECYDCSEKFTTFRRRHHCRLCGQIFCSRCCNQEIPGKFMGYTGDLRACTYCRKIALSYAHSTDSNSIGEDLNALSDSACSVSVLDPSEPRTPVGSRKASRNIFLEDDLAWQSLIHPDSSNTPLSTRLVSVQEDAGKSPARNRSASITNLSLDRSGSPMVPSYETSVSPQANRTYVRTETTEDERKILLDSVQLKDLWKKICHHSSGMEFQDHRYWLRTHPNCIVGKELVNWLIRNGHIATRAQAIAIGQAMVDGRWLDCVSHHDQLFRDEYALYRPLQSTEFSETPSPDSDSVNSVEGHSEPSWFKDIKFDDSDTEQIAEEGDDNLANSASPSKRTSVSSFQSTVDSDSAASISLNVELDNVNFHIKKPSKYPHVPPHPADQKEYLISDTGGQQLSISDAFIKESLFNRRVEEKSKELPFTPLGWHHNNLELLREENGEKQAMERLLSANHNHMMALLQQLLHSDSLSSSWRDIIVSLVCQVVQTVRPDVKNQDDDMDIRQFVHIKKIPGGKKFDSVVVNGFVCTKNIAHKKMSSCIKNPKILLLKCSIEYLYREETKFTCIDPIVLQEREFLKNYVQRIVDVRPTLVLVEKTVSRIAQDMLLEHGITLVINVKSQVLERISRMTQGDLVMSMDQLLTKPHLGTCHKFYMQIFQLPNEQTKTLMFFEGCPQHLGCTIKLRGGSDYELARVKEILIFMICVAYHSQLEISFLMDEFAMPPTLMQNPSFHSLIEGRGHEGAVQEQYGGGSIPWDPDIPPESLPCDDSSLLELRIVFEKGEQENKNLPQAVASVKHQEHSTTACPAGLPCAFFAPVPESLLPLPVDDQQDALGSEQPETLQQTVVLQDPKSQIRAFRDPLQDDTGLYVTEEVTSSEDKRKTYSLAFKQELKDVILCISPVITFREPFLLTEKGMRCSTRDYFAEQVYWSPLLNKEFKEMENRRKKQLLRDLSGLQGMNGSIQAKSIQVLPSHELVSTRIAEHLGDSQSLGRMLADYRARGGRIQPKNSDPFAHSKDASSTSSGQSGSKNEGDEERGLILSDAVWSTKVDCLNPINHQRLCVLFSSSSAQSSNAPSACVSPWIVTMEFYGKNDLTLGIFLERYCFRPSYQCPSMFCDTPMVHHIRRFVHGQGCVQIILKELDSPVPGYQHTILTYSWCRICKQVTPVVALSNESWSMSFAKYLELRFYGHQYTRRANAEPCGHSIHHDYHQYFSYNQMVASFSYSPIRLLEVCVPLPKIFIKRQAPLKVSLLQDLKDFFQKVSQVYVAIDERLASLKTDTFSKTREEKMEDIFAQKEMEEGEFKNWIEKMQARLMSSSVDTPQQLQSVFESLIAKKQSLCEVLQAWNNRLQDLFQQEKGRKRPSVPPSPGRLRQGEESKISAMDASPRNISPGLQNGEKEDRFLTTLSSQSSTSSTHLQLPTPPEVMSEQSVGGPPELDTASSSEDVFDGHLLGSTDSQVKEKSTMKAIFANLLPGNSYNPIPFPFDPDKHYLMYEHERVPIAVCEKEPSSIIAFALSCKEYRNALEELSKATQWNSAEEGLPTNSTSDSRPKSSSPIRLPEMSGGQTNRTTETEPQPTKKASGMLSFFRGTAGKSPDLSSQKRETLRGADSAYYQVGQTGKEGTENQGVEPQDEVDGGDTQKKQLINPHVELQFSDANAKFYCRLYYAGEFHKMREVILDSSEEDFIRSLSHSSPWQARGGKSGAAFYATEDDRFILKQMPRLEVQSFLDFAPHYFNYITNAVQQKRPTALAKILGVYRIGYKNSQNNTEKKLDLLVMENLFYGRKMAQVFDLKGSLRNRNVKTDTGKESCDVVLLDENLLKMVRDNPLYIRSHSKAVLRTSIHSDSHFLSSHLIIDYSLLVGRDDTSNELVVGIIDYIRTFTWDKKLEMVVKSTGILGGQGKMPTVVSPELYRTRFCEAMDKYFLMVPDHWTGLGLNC

| COMPOUND | inhibition at 5 µM |
| --- | --- |
| Cc1ccc(NC(=O)c2cc([S+](C)[O-])n(-c3ccc(F)cc3)n2)cc1C#Cc1cnc2cccnn12 (stereo not shown) [Ex6] | 90 to 94% |
| Cc1ccc(NC(=O)c2cc(S(C)(=O)=O)n(-c3ccc(F)cc3)n2)cc1-c1cc(OCCO)nc(N2CCOCC2)c1 [Ex9] | < 79% |
| CNC(=O)c1cc(Oc2ccc(F)c(NC(=O)c3cc([S+](C)[O-])n(-c4ccc(F)cc4)n3)c2)ccn1 (stereo not shown) [Ex7] | < 79% |

Requested read-out inhibition at 5 µM, target or system PIKfyve (Homo sapiens), entry Cc1ccc(NC(=O)c2cc(S(C)(=O)=O)n(-c3ccc(F)cc3)n2)cc1Nc1ccc2ncn(C)c(=O)c2c1 [Ex4] < 79%

###

Entries and their inhibition at 5 µM
Molecular target: BRAF (Homo sapiens)
Construct: purchased Nanosyn (contract screening)
Assay: Kinase panel enzymatic inhibition assay (Nanosyn)
Type: biochemical
Settings: compound 5 μM; ATP at Km; 30-minute pre-incubation
Method: The disclosed compounds were tested for activity against a panel of at least 300 kinases. […]

| SMILES_STRING | inhibition at 5 µM |
| --- | --- |
| CSc1cc(C(=O)Nc2cc(Oc3ccnc(C(=O)NC4CNC4)c3)ccc2F)nn1-c1ccc(F)cc1 | 90 to 94% |
| Cc1ccc(NC(=O)c2cc(S(C)(=O)=O)n(-c3ccc(F)cc3)n2)cc1C#Cc1cnc2cccnn12 | ≥ 95% |

// lookup inhibition at 5 µM for `Cc1ccc(NC(=O)c2cc(S(C)(=O)=O)n(-c3ccc(F)cc3)n2)cc1Nc1ccc2ncn(C)c(=O)c2c1` ≥ 95%

###

target: ERBB4 (Homo sapiens, UniProt Q15303); construct: purchased Nanosyn (contract screening); assay: Kinase panel enzymatic inhibition assay (Nanosyn); format: biochemical; settings: compound 5 μM; ATP at Km; 30-minute pre-incubation
Sequence (Q15303 26-1308): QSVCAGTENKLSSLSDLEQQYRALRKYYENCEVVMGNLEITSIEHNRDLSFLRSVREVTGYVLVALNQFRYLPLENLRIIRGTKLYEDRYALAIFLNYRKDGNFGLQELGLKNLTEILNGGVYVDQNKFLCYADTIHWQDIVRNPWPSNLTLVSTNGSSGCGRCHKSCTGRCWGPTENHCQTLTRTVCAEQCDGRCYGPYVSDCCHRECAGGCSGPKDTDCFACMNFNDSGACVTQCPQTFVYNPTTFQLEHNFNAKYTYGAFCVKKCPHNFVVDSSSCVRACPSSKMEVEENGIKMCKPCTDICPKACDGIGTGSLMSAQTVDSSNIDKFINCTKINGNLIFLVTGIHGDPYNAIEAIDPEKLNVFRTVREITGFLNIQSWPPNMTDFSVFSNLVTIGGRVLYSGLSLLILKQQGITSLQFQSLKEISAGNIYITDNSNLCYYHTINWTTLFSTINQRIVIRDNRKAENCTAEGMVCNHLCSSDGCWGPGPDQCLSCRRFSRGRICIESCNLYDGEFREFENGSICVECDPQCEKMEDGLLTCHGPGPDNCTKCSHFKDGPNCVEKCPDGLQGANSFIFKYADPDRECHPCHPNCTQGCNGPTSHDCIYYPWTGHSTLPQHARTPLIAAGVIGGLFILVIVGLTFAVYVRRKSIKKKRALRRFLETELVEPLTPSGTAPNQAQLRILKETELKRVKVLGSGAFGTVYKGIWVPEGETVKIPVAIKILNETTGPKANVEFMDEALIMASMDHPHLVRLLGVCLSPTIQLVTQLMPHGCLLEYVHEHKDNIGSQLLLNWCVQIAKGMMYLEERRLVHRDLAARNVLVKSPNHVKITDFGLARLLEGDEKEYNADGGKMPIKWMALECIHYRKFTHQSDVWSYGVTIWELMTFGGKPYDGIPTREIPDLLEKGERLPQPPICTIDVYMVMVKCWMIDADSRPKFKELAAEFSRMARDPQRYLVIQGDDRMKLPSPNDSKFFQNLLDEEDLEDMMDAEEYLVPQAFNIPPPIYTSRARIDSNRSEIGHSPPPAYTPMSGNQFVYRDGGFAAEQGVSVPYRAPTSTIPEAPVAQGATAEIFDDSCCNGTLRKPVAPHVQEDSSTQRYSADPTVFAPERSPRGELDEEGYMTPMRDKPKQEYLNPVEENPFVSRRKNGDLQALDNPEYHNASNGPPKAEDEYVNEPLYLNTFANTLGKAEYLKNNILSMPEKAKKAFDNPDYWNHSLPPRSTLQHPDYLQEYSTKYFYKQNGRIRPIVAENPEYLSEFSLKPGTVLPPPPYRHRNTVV
READOUT_NAME: inhibition at 5 µM

| MOLECULE | READOUT_NAME | RESULT |
| --- | --- | --- |
| CNC(=O)c1cc(Oc2ccc(F)c(NC(=O)c3cc([S+](C)[O-])n(-c4ccc(F)cc4)n3)c2)ccn1 (stereo not drawn) | inhibition at 5 µM | < 79% |
| Cc1ccc(NC(=O)c2cc(S(C)(=O)=O)n(-c3ccc(F)cc3)n2)cc1Nc1nccc(-c2cccnc2N)n1 | inhibition at 5 µM | 80 to 89% |

Let us examine a further case.
// lookup inhibition at 5 µM for `Cc1ccc(NC(=O)c2cc(S(C)(=O)=O)n(-c3ccc(F)cc3)n2)cc1-c1cc(OCCO)nc(N2CCOCC2)c1` < 79%

###

Molecular target: PLK4 (Homo sapiens, UniProt O00444)
Sequence (O00444 1-970): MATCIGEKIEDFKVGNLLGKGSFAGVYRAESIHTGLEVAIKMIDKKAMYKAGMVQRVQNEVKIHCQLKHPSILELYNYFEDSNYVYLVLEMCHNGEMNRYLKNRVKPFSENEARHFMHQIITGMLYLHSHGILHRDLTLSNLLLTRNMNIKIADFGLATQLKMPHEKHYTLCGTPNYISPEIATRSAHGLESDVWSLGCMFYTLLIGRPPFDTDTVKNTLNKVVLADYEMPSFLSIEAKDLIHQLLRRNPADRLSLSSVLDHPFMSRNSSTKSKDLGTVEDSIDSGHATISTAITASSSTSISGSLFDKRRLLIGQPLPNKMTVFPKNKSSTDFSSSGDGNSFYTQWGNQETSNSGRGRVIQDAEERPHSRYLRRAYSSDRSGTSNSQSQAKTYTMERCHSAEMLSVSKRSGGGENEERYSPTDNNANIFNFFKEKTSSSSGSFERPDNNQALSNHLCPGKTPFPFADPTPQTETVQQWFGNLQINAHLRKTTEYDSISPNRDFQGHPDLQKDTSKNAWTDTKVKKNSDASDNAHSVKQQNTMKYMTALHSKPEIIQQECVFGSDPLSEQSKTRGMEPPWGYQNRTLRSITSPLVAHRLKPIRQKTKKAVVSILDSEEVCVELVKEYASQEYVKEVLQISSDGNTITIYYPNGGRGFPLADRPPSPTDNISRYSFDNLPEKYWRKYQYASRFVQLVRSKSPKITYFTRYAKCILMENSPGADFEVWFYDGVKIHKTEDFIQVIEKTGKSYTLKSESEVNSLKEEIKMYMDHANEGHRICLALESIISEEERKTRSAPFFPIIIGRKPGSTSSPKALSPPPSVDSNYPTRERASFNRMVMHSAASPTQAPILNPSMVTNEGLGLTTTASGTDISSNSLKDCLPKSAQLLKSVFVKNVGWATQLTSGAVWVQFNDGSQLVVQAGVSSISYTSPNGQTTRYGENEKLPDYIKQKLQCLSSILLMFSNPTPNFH
READOUT_NAME: IC50

| SMILES_STRING | IC50 |
| --- | --- |
| COc1cc2nccc(Oc3ccc(NC(=O)c4cc(S(C)(=O)=O)n(-c5ccc(F)cc5)n4)cc3)c2cc1OC | 500 to 1000 nM |

Let us examine a further case.
// lookup IC50 for `COc1cc2nccc(Oc3ccc(NC(=O)c4cc(S(C)(=O)=O)n(-c5ccc(F)cc5)n4)cc3F)c2cc1OC` < 500 nM

###

Entries and their inhibition at 5 µM
biological target: PDGFRb (Homo sapiens); construct: Nanosyn (contract laboratory that ran the panel); test: Kinase panel enzymatic inhibition assay (Nanosyn); assay type: biochemical; settings: compound 5 μM; ATP at Km; 30-minute pre-incubation
Sequence (P09619 33-1106): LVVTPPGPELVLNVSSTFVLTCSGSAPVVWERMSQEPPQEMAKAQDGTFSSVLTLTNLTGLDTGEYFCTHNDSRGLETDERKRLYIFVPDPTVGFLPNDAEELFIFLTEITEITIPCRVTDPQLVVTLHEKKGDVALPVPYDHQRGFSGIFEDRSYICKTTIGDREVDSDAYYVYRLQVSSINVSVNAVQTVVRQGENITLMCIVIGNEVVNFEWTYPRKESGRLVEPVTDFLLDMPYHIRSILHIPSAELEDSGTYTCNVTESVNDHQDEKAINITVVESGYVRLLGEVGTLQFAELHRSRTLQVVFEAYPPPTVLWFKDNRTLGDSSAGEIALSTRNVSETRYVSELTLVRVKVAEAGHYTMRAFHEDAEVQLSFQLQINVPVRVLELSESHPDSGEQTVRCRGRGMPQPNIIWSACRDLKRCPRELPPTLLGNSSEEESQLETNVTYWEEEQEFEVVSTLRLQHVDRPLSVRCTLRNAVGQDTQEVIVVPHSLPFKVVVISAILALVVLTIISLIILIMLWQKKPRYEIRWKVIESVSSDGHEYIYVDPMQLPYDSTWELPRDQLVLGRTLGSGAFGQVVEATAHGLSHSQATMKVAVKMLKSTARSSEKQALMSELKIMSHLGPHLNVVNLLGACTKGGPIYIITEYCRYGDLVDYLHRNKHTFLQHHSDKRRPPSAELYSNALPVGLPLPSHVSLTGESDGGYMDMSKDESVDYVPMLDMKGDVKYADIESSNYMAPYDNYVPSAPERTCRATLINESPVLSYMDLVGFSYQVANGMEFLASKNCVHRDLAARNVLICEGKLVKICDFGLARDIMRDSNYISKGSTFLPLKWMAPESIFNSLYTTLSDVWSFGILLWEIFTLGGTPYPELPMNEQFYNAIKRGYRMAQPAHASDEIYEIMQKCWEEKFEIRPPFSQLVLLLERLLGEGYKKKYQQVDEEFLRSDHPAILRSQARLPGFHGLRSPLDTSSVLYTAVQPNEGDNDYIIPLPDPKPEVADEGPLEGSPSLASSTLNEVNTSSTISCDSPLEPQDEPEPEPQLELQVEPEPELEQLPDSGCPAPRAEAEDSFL

Example entries and their recorded answers appear below.
| SMILES_STRING | inhibition at 5 µM |
| --- | --- |
| Cc1ccc(NC(=O)c2cc(S(C)(=O)=O)n(-c3ccc(F)cc3)n2)cc1-c1cc(N2CCOCC2)c(=O)n(C)c1 | < 79% |
| Cc1ccc(NC(=O)c2cc(S(C)(=O)=O)n(-c3ccc(F)cc3)n2)cc1C#Cc1cnc2cccnn12 | 90 to 94% |

// lookup inhibition at 5 µM for `Cc1ccc(NC(=O)c2cc(S(C)(=O)=O)n(-c3ccc(F)cc3)n2)cc1-c1cc(OCCO)nc(N2CCOCC2)c1` < 79%

###

biological target: LCK (Homo sapiens, UniProt P06239)
READOUT_NAME: IC50

// lookup IC50 for COc1cc2nccc(Oc3ccc(NC(=O)c4cc(S(C)(=O)=O)n(-c5ccc(F)cc5)n4)c(F)c3)c2cc1OC [Ex71] < 500 nM

###

target: HCK (Homo sapiens, UniProt P08631); construct: purchased Nanosyn (contract screening); experiment: Kinase panel enzymatic inhibition assay (Nanosyn); type: biochemical; conditions: compound 5 μM; ATP at Km; 30-minute pre-incubation
Sequence (P08631 whole entry): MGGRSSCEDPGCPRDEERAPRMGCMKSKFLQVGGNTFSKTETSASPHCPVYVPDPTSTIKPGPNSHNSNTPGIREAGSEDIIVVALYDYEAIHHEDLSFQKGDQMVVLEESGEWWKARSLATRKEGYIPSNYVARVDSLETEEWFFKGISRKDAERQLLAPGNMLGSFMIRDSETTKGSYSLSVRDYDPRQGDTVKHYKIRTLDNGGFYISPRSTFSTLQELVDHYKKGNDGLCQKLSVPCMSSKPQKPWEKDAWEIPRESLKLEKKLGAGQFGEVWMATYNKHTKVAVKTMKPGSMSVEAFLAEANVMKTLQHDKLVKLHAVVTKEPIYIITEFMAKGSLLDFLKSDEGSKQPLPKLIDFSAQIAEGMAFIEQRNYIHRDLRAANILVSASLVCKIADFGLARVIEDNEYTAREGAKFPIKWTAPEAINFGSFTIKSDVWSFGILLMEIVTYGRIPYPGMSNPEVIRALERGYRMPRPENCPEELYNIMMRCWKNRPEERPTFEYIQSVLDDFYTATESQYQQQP
READOUT_NAME: inhibition at 5 µM

Example entries and their recorded answers appear below.
| COMPOUND | TESTED_SYSTEM | READOUT_NAME | RESULT |
| --- | --- | --- | --- |
| Cc1ccc(NC(=O)c2cc(S(C)(=O)=O)n(-c3ccc(F)cc3)n2)cc1-c1cc(OCCO)nc(N2CCOCC2)c1 [Ex9] | HCK (Homo sapiens, UniProt P08631) | inhibition at 5 µM | < 79% |
| Cc1ccc(NC(=O)c2cc([S+](C)[O-])n(-c3ccc(F)cc3)n2)cc1-c1cc(N2CCOCC2)c(=O)n(C)c1 (stereo not shown) [Ex11] | HCK (Homo sapiens, UniProt P08631) | inhibition at 5 µM | < 79% |
| CCOC(=O)Nc1cn2nc(Nc3cc(NC(=O)c4cc([S+](C)[O-])n(-c5ccc(F)cc5)n4)ccc3C)ccc2n1 (stereo not shown) [Ex18] | HCK (Homo sapiens, UniProt P08631) | inhibition at 5 µM | ≥ 95% |

Let us examine a further case.
// lookup inhibition at 5 µM for CNC(=O)c1cc(Oc2ccc(F)c(NC(=O)c3cc([S+](C)[O-])n(-c4ccc(F)cc4)n3)c2)ccn1 (stereo not shown) [Ex7] < 79%

###

Entries and their inhibition at 5 µM
Target: MNK2 (Homo sapiens)
Construct: Nanosyn (contract laboratory that ran the panel)
Assay: Kinase panel enzymatic inhibition assay (Nanosyn)
Assay type: biochemical
Details: compound 5 μM; ATP at Km; 30-minute pre-incubation
Method: The disclosed compounds were tested for activity against a panel of at least 300 kinases. […]

Example entries and their recorded answers appear below.
| MOLECULE | inhibition at 5 µM |
| --- | --- |
| CNC(=O)c1cc(Oc2ccc(NC(=O)c3cc(S(C)(=O)=O)n(-c4ccc(F)cc4)n3)c(F)c2)ccn1 | < 79% |
| CNC(=O)c1cc(Oc2ccc(F)c(NC(=O)c3cc([S+](C)[O-])n(-c4ccc(F)cc4)n3)c2)ccn1 (centres unmarked) | < 79% |

Requested read-out inhibition at 5 µM, target or system MNK2 (Homo sapiens), entry Cc1ccc(NC(=O)c2cc([S+](C)[O-])n(-c3ccc(F)cc3)n2)cc1-c1cc(N2CCOCC2)c(=O)n(C)c1 (centres unmarked) < 79%

Reference for the values: patent US20240400577A1
